- experiment summary: chemical genetic growth profiling, strain panel (AID 1159580);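 also: tested at 20 µM; growth read once vehicle control cultures reached saturation at 30 °C; lower values mean less growth of the strain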
- conditions: S. cerevisiae deletion strains, growth OD, locus YER015W, strain faa2
About 2,000 (36%) of roughly 5,500 compounds were called active. About 18% were inconclusive and are not listed. Rule as the data show it: active = normalized growth mostly below about 0.91 (no sharp cut-off); inconclusive = no clear call, values can overlap the other calls; inactive = mostly above about 0.92. The list shows a part of the results.
Outcome field: choose from Yes (active), No (inactive)

Consider the worked cases shown below.
{"compound": "O=C(CCCN1CCC(O)(c2ccc(Cl)cc2)CC1)c1ccc(F)cc1", "qualitative label": "No"}
{"compound": "O=C(O)c1ccccc1O", "qualitative label": "No"}

Exercise: Given O=C(CCCN1CCN(c2ccccn2)CC1)c1ccc(F)cc1 , state the outcome it received in this test.
Key: No

Exercise: Assay result, entry COC(=O)N/N=C\c1c[n+]([O-])c2ccccc2[n+]1[O-] — outcome?
Key: No

Exercise: Answer briefly: the call reported for CCC(=O)OCC(=O)[C@@]1(OC(=O)CC)[C@@H](C)CC2C3CCC4=CC(=O)C=C[C@]4(C)C3(F)[C@@H](O)C[C@@]21C (stereo not given in full) in this assay.
Key: No

Exercise: Any idea what this test logged for O=C(/C=C(\O)c1ccccc1)c1ccccc1O ?
Key: Yes

Exercise: Kindly provide the recorded test outcome for the following compound: NC(=O)c1ccccc1O
Key: No

Exercise: How was OC1(c2ccc(Cl)c(C(F)(F)F)c2)CCN(CCCC(c2ccc(F)cc2)c2ccc(F)cc2)CC1 classified in this test?
Key: Yes

Exercise: Check the results log: what was the call for CC(=O)Oc1ccccc1C(=O)Oc1ccccc1C(=O)O ?
Key: No

Exercise: Recorded test call requested for C[C@H]1O[C@H](O[C@H]2[C@H](O)[C@@H](O)[C@@H](O[C@H]3[C@H](O)[C@@H](O)C(O)O[C@@H]3CO)O[C@@H]2CO)[C@H](O)[C@@H](O)[C@@H]1N[C@H]1C=C(CO)[C@@H](O)[C@H](O)[C@H]1O (stereo not given in full)
Key: No
